B1: library; numbered along this chain (parent)
chain: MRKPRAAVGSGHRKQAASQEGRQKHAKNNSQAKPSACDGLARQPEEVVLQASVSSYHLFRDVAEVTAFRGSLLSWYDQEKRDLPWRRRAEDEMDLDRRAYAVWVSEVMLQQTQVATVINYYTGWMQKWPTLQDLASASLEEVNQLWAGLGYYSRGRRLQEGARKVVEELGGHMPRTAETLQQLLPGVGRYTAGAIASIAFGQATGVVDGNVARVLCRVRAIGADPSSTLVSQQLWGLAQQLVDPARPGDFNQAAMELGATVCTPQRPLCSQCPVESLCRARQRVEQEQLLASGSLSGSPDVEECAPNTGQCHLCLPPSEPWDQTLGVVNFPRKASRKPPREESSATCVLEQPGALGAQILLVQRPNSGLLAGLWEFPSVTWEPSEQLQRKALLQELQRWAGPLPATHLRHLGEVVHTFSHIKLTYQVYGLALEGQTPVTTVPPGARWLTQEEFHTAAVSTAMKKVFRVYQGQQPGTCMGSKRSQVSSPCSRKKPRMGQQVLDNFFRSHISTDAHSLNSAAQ

Variants of: B1
Run Description: 8OG:A repair function score (normalized; synonymous = 0, nonsense = -1) (normalized log-likelihood score); higher = more repair activity (WT-like);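 further: cells sorted at 72 h after reporter transfection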
Assay Setup: with 8OG:A DNA repair reporter (GFP) in HEK-293 MUTYH KO cells
Readout Name: 8OG:A repair function score
Give the figure by itself; no unit, no explanation.

1. G309V ... -0.0173
2. Q240S ... -0.945
3. S298Y ... -0.0154
4. L145M ... 0.00629

Then this variant:
Record summary for C262P : reported 8OG:A repair function score = -1.18
